assayed system: UniProt:P49682
test: FLIPR assay
particulars: CHO-K1 cells expressing the human CXCR3A coupled to Galpha(16); CXCL10 agonist 20 nM; Fluo-4-AM fluorescence; mean values if determined several times
assay readout: IC50 (nM)
Kindly answer with a numeric value in nM, unit omitted.

[
  {
    "compound": "Cc1cn(CC(=O)N2CCN(c3scnc3-c3nc4ccccc4[nH]3)CC2)c2ncccc12 [Example 67]",
    "value units": "nM",
    "IC50": 9
  },
  {
    "compound": "COC(=O)c1ccc2[nH]c(-c3nc(C(F)(F)F)sc3N3CCN(C(=O)Cn4cnc5cccnc54)[C@H](C)C3)nc2c1 [Example 167]",
    "value units": "nM",
    "IC50": 1
  },
  {
    "compound": "C[C@@H]1CN(c2sc(C(F)(F)F)nc2-c2nc3ccccc3[nH]2)CCN1C(=O)Cn1nccn1 [Example 197]",
    "value units": "nM",
    "IC50": 8
  },
  {
    "compound": "N#Cc1cn(CC(=O)N2CCN(c3scnc3-c3nc4ccccc4[nH]3)CC2)c2ccccc12 [Example 59]",
    "value units": "nM",
    "IC50": 4
  },
  {
    "compound": "C[C@@H]1CN(c2scnc2-c2nc3ccccc3[nH]2)CCN1C(=O)CN1C(=O)C(=O)c2ccccc21 [Example 157]",
    "value units": "nM",
    "IC50": 4
  },
  {
    "compound": "Cc1cc2[nH]c(-c3ncsc3N3CCN(C(=O)Cn4ccc5cccnc54)[C@H](C)C3)nc2cc1Cl [Example 27]",
    "value units": "nM",
    "IC50": 3
  }
]

Next:
input: Please look up its IC50: C[C@@H]1CN(c2scnc2-c2nc3ccccc3[nH]2)CCN1C(=O)Cn1cccc2oc(=O)nc1-2 [Example 156]
output: 64

====

assayed system: CXCR3 (Homo sapiens (Human))
Sequence (P49682 whole entry): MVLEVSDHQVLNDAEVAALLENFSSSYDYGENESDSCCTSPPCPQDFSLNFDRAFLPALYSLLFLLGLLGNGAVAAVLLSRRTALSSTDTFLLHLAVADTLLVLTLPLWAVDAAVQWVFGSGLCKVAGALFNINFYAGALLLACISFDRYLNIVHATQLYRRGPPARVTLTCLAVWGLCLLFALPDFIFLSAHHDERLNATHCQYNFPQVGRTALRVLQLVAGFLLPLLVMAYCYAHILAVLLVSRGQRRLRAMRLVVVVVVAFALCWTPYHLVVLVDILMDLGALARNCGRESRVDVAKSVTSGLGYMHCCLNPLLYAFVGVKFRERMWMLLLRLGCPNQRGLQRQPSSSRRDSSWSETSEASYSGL
test: Receptor internalization assay
Assay type: cell-based
particulars: human whole blood; final CXCL10 concentration 9 nM; 30 min 37° C.; CXCR3 cell surface expression on CD3 positive cells, flow cytometer; read-out: Internalization IC50
assay readout: log10 IC50 (log10 of the value in nM)
The common logarithm of IC50 in nM is what is listed.

The following compounds have reported results that may help.
[
  {
    "compound": "C[C@@H]1CN(c2sc(C(F)(F)F)nc2-c2nc3ccc(CN(C)C)cc3[nH]2)CCN1C(=O)Cn1cccn1",
    "assayed system": "CXCR3 (Homo sapiens (Human))",
    "log10 IC50": 3.35
  },
  {
    "compound": "C[C@@H]1CN(c2sc(C(F)(F)F)nc2-c2nc3ccc(N(C)C)cc3[nH]2)CCN1C(=O)Cn1cccn1",
    "assayed system": "CXCR3 (Homo sapiens (Human))",
    "log10 IC50": 2.85
  }
]

Kindly consider the entry below.
input: Entry under review: "Cc1nc(C)n(CC(=O)N2CCN(c3sc(C(F)(F)F)nc3-c3nc4ccc(OC5CNC5)cc4[nH]3)C[C@H]2C)n1" . Reported log10 IC50?
output: 2.64

====

# IC50 listing for each entry below
assayed system: human CXCR3A (Homo sapiens (Human), UniProt P49682)
Sequence (P49682 whole entry): as above
test: FLIPR assay
particulars: CHO-K1 cells expressing the human CXCR3A coupled to Galpha(16); CXCL10 agonist 20 nM; Fluo-4-AM fluorescence; mean values if determined several times
Enter your answer as a number in nM; do not include the unit.

// below: answered molecules
[
  {
    "smiles code": "Cc1nc(C)n(CC(=O)N2CCN(c3sc(C(F)(F)F)nc3-c3nc4ccc(N5CCCC5=O)cc4[nH]3)C[C@H]2C)n1",
    "value units": "nM",
    "numeric value": 30
  },
  {
    "smiles code": "Cc1ccn(CC(=O)N2CCN(c3sc(C(F)(F)F)nc3-c3nc4ccccc4[nH]3)C[C@H]2C)n1",
    "value units": "nM",
    "numeric value": 0.2
  }
]

input: Using the record for "O=C(Cn1ccc2cccnc21)N1CCCN(c2scnc2-c2nc3ccccc3[nH]2)CC1" , report its IC50.
output: 3

input: Param item = "C[C@@H]1CN(c2sc(C(F)(F)F)nc2-c2nc3ccccc3[nH]2)CCN1C(=O)Cn1cnc2ccccc21" ; retrieve measured IC50.
output: 1

input: # IC50 lookup, item "O=C(Cn1ccc2cccnc21)N1CCN(c2sc(-c3ccccc3)nc2-c2nc3ccccc3[nH]2)CC1"
output: 77

input: Record request: IC50 value, item "C[C@@H]1CN(c2sc(C(F)(F)F)nc2-c2nc3ccncc3[nH]2)CCN1C(=O)Cn1cnc2cccnc21"
output: 6

input: Looking for the measured IC50 of "O=C(CN1C(=O)COc2ccccc21)N1CCN(c2scnc2-c2nc3ccccc3[nH]2)CC1" , can you help?
output: 11

input: IC50 for "Cc1nc(C)n(CC(=O)N2CCN(c3sc(C(F)(F)F)nc3-c3nc4c(F)cccc4[nH]3)C[C@H]2C)n1" ?
output: 1

input: Recorded IC50 for "C[C@@H]1CN(c2scnc2-c2nc3ccc(C(C)(C)C)cc3[nH]2)CCN1C(=O)Cn1ccc2cccnc21" , please?
output: 1

input: For the molecule "C[C@@H]1CN(c2sc(C(F)(F)F)nc2-c2nc3ccccc3[nH]2)CCN1C(=O)Cn1cncn1" , what IC50 is on record?
output: 8

input: Fill blank: measured IC50 of the molecule "Cc1cccc2oc(=O)n(CC(=O)N3CCN(c4scnc4-c4nc5ccccc5[nH]4)C[C@H]3C)c12" is ____.
output: 3

input: Would you kindly share the measured IC50 for "Cc1ncn(CC(=O)N2CCN(c3sc(C(F)(F)F)nc3-c3nc4ccccc4[nH]3)C[C@H]2C)n1" ?
output: 1

input: Record request: IC50 value, item "COc1cccc2nc(-c3ncsc3N3CCN(C(=O)Cn4c(=O)n(C)c5ccccc54)CC3)[nH]c12"
output: 2

input: Entry "C[C@@H]1CN(c2scnc2-c2nc3cc(Cl)ccc3[nH]2)C[C@H](C)N1C(=O)Cn1cnc2cccnc21" : reported IC50 = ?
output: 1

input: Quick check: IC50 of "C[C@@H]1CN(c2sc(C(F)(F)F)nc2-c2nc3cc(C4(O)CC4)ccc3[nH]2)CCN1C(=O)Cn1cnc2cccnc21" ?
output: 3

====

assayed system: UniProt:P49682
test: Receptor internalization assay
Type: cell-based
particulars: human whole blood; final CXCL10 concentration 9 nM; 30 min 37° C.; CXCR3 cell surface expression on CD3 positive cells, flow cytometer; read-out: Internalization IC50
Protocol: B): Receptor Internalization Assay: Stock solutions of test compounds are made up at a concentration of 10 mM in DMSO, and serially diluted in PBS containing 0.5% BSA to concentrations required for inhibition dose response curves. Diluted compounds are then mixed with an equal volume of CXCL10 (Peprotech) diluted in PBS. […] After washing the cells with PBS containing 0.5% BSA, the samples are then analyzed in a flow cytometer (FACS Canto II, Becton Dickinson). […]
# pIC50 values compiled below
pIC50 here is simply -log10 of the concentration when that concentration is written in mol/L.

[
  {
    "smiles code": "C[C@@H]1CN(c2scnc2-c2nc3cc(F)ccc3[nH]2)CCN1C(=O)Cn1cnc2cccnc21",
    "numeric value": 6.25
  },
  {
    "smiles code": "C[C@@H]1CN(c2sc(CO)nc2-c2nc3ccccc3[nH]2)CCN1C(=O)Cn1cnc2cccnc21",
    "numeric value": 5.46
  },
  {
    "smiles code": "N#Cc1cccc2ccn(CC(=O)N3CCN(c4scnc4-c4nc5ccccc5[nH]4)CC3)c12",
    "numeric value": 6.34
  },
  {
    "smiles code": "CCc1nc(-c2nc3ccccc3[nH]2)c(N2CCN(C(=O)Cn3ccc4cccnc43)CC2)s1",
    "numeric value": 5.23
  },
  {
    "smiles code": "O=C(Cn1cnc2ccccc21)N1CCN(c2scnc2-c2nc3ccccc3[nH]2)CC1",
    "numeric value": 5.51
  },
  {
    "smiles code": "Cc1nc2ccccc2n1CC(=O)N1CCN(c2scnc2-c2nc3ccccc3[nH]2)CC1",
    "numeric value": 5.47
  },
  {
    "smiles code": "Cc1cc2[nH]c(-c3ncsc3N3CCN(C(=O)Cn4cnc5cccnc54)[C@H](C)C3)nc2cc1Cl",
    "numeric value": 6.69
  },
  {
    "smiles code": "C[C@@H]1CN(c2scnc2-c2nc3cc(S(C)(=O)=O)ccc3[nH]2)CCN1C(=O)Cn1ccc2cccnc21",
    "numeric value": 5.50
  },
  {
    "smiles code": "Cn1c(=O)n(CC(=O)N2CCN(c3scnc3-c3nc4cc(C#N)ccc4[nH]3)CC2)c2ccccc21",
    "numeric value": 6.14
  },
  {
    "smiles code": "COC(=O)c1ccn(CC(=O)N2CCN(c3sc(C(F)(F)F)nc3-c3nc4ccccc4[nH]3)C[C@H]2C)n1",
    "numeric value": 5.16
  }
]

input: Sample "C[C@@H]1CN(c2sc(C(F)(F)F)nc2-c2nc3ccccc3[nH]2)CCN1C(=O)Cn1cc(C2CCN(C)CC2)cn1" — what was its pIC50?
output: 5.82

input: Need pIC50 of "C[C@@H]1CN(c2sc(CN(C)C)nc2-c2nc3ccccc3[nH]2)CCN1C(=O)Cn1cnc2cccnc21" , thanks.
output: 5.95

input: Can you look up the measured pIC50 of "C[C@@H]1CN(c2sc(C(F)(F)F)nc2-c2nc3ccc(N4CCN(C)CC4)cc3[nH]2)CCN1C(=O)Cn1cccn1" for me?
output: 6.86

input: Would you kindly share the measured pIC50 for "C[C@@H]1CN(c2scnc2-c2nc3ccc(C4CC4)cc3[nH]2)CCN1C(=O)Cn1cnc2cccnc21" ?
output: 6.74

input: Given the compound "C[C@@H]1CN(c2scnc2-c2nc3ccccc3[nH]2)CCN1C(=O)Cn1c(=O)oc2cccnc21" , what is its reported pIC50?
output: 5.96
